Procedure Text: The drug is tested on WLS-010 corresponding to human gut metagenome with ENA study accession number: PRJEB37062 and ENA sample accession number: ERS12561743 for biotransformation under anaerobic condition. The drug concentrations were measured over 9 timepoints collected between 0 and 24 hours of incubation by liquid-chromatography-coupled mass spectrometry (LC–MS); note: call rule not given here
Details: 2 µM
Quantity: Bacterial Biotransformation

Sample records with Bacterial Biotransformation:
Molecule	Bacterial Biotransformation
CC(C)N(CCC(C(N)=O)(c1ccccc1)c1ccccn1)C(C)C.O=P(O)(O)O (stereo not drawn) [DISOPYRAMIDE PHOSPHATE]	Compound NOT metabolized
OC(CCN1CCCCC1)(c1ccccc1)C1CC2C=CC1C2 (stereo not drawn) [BIPERIDEN]	Compound NOT metabolized
CCN(CC)CC#CCOC(=O)C(O)(c1ccccc1)C1CCCCC1.Cl (stereo not drawn) [OXYBUTYNIN CHLORIDE]	Compound metabolized
CCCc1nn(C)c2c(=O)[nH]c(-c3cc(S(=O)(=O)N4CCN(C)CC4)ccc3OCC)nc12.O=C(O)CC(O)(CC(=O)O)C(=O)O [SILDENAFIL CITRATE]	Compound NOT metabolized
O=C(O)CCc1nc(-c2ccccc2)c(-c2ccccc2)o1 [OXAPROZIN]	Compound metabolized
CC(C)(C#N)c1cc(Cn2cncn2)cc(C(C)(C)C#N)c1 [ANASTROZOLE]	Compound NOT metabolized

Challenge: Tell me Bacterial Biotransformation reported for CN1CCc2c(c3ccccc3n2Cc2ccccc2)C1.CN1CCc2c(c3ccccc3n2Cc2ccccc2)C1.O=S(=O)(O)c1cccc2c(S(=O)(=O)O)cccc12
Response given: Compound NOT metabolized

Challenge: Return Bacterial Biotransformation for the following molecule: COc1cc2nc(N(C)CCCNC(=O)C3CCCO3)nc(N)c2cc1OC (stereo not drawn) [ALFUZOSIN]
Response given: Compound metabolized

---

Procedure Text: The drug is tested on WLS-090 corresponding to human gut metagenome with ENA study accession number: PRJEB37062 and ENA sample accession number: ERS12561753 for biotransformation under anaerobic condition. The drug concentrations were measured over 9 timepoints collected between 0 and 24 hours of incubation by liquid-chromatography-coupled mass spectrometry (LC–MS)
Details: 2 µM
Where a SMILES comes first, the peptide text is derived from it. [ ]: non-standard residue; d: D form. pGlu = O=C1CC[C@@H](C(=O)O)N1; Thz = O=C(O)[C@@H]1CSCN1
Quantity: Bacterial Biotransformation

Compound	Bacterial Biotransformation
CN1CCc2cccc3c2[C@H]1Cc1ccc(O)c(O)c1-3 [APOMORPHINE]	Compound NOT metabolized
COc1c(C)c2c(c(O)c1C/C=C(\C)CCC(=O)OCCN1CCOCC1)C(=O)OC2 [MYCOPHENOLATE MOFETIL]	Compound metabolized
CN1CC(=O)N2[C@H](c3ccc4c(c3)OCO4)c3[nH]c4ccccc4c3C[C@@H]2C1=O	Compound metabolized
O=C(CCCN1CCC(O)(c2ccc(Cl)cc2)CC1)c1ccc(F)cc1 [HALOPERIDOL]	Compound metabolized
O=C1CC[C@@H](C(=O)N2CSC[C@H]2C(=O)O)N1 [PIDOTIMOD] ([pGlu]-[Thz]-OH)	Compound NOT metabolized
COc1ccccc1OCC(O)COC(N)=O (stereo not given) [METHOCARBAMOL]	Compound NOT metabolized
Cc1cn([C@H]2C[C@H](N=[N+]=[N-])[C@@H](CO)O2)c(=O)[nH]c1=O [ZIDOVUDINE]	Compound NOT metabolized
CNC(=C[N+](=O)[O-])NCCSCc1csc(CN(C)C)n1 [NIZATIDINE]	Compound NOT metabolized

Challenge: Output Bacterial Biotransformation of CC(O)(CS(=O)(=O)c1ccc(F)cc1)C(=O)Nc1ccc(C#N)c(C(F)(F)F)c1 (stereo not given) [BICALUTAMIDE]
Response given: Compound NOT metabolized

Challenge: Complete the entry with Bacterial Biotransformation for O=c1n(CCCN2CCN(c3cccc(Cl)c3)CC2)nc2ccccn12 [TRAZODONE]
Response given: Compound metabolized

Challenge: Identify Bacterial Biotransformation associated with the compound CC(C)N(CCC(C(N)=O)(c1ccccc1)c1ccccn1)C(C)C.O=P(O)(O)O (stereo not given) [DISOPYRAMIDE PHOSPHATE]
Response given: Compound metabolized

Challenge: Note down Bacterial Biotransformation recorded for CC(CN(C)C)CN1c2ccccc2CCc2ccccc21.O=C(O)/C=C\C(=O)O (stereo not given) [TRIMIPRAMINE MALEATE]
Response given: Compound metabolized

Challenge: Write down Bacterial Biotransformation measured for item O=P(O)(O)O.c1ccc(CN(CC2=NCCN2)c2ccccc2)cc1 [ANTAZOLINE PHOSPHATE]
Response given: Compound metabolized

Challenge: Report Bacterial Biotransformation for CCC1(c2ccc(N)cc2)CCC(=O)NC1=O (stereo not given) [AMINOGLUTETHIMIDE]
Response given: Compound NOT metabolized

Challenge: Find the measured Bacterial Biotransformation of CCN(CC)CCNC(C(=O)OCCC(C)C)c1ccccc1.Cl.Cl (stereo not given) and report it.
Response given: Compound metabolized

Challenge: Indicate its recorded Bacterial Biotransformation; the compound in question is CNCCC(Oc1ccc(C(F)(F)F)cc1)c1ccccc1 (stereo not given) [FLUOXETINE]
Response given: Compound NOT metabolized

Challenge: Quote Bacterial Biotransformation reported for Cc1nc2n(c(=O)c1CCN1CCC(c3noc4cc(F)ccc34)CC1)CCCC2 [RISPERIDONE] please.
Response given: Compound metabolized

Challenge: Let me know recorded Bacterial Biotransformation for O=C1NCC2(CCN(CCc3ccccc3)CC2)O1 [FENSPIRIDE] , thanks.
Response given: Compound NOT metabolized

Challenge: Give the reported value of Bacterial Biotransformation for this record: NC(=O)N1c2ccccc2CC(=O)c2ccccc21 [OXCARBAZEPINE]
Response given: Compound NOT metabolized

Challenge: Fill in Bacterial Biotransformation for record CCCC1O[C@@H]2C[C@H]3[C@@H]4CCC5=CC(=O)C=C[C@]5(C)[C@H]4[C@@H](O)C[C@]3(C)[C@]2(C(=O)CO)O1 (stereo not given in full) [BUDESONIDE]
Response given: Compound metabolized
